tested on: Amaranthus palmeri R39P population; assay type: in vivo; settings: R39P F1 population; 2X recommended dose; 21 DAT; 25 seedlings
Measured Frequency of resistant plants, listed per entry.

Compound	Frequency of resistant plants [%]
Cc1nn(-c2cc(CC(Cl)C(=O)O)c(Cl)cc2F)c(=O)n1C(F)F (stereo not shown)	64
CCOC(=O)C(C)OC(=O)c1cc(Oc2ccc(C(F)(F)F)cc2Cl)ccc1[N+](=O)[O-] (stereo not shown)	40
C#CCN1C(=O)COc2cc(F)c(N3C(=O)C4=C(CCCC4)C3=O)cc21	60
O=C(O)c1cc(Oc2ccc(C(F)(F)F)cc2Cl)ccc1[N+](=O)[O-]	8
